# protocol.details: amyloid nucleation score (Sup35N fusion, yeast selection) (log enrichment); library NNK3; higher = more nucleation; inactive = no reads after selection;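 also: zero at mode of non-aggregating sequences after 7 days selection at 30°C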
measured.quantity: amyloid nucleation score

Below: 10 sequences and their reported amyloid nucleation score.
seq_string=LRHWRMRLSIGN result=inactive
seq_string=HWCTSKFIKPNGYPREERRV result=inactive
seq_string=LQSGDRIVTDSYVRAYTMHV result=inactive
seq_string=REVGDQMIDLSRSYVQSTVG result=inactive
seq_string=VPVRSSYMTEMYVCSGISPR result=inactive
seq_string=NLFLGCQN result=inactive
seq_string=FWTVHLVT result=inactive
seq_string=LWYWVELLCCTGGSRA result=2.02
seq_string=RLFKNGSMGRSYGSVYRPV result=-0.111
seq_string=TCLVGHDKKIDFIV result=inactive

Asked: Input `ITVFNLILM` , output reported amyloid nucleation score.
Given back: 2.61

Asked: Input `CMRLLTWIKPNWLLLVCLKT` , output reported amyloid nucleation score.
Given back: inactive

* * *

# protocol.details: amyloid nucleation score (Sup35N fusion, yeast selection) (log enrichment); library NNK3; higher = more nucleation; inactive = no reads after selection
measured.quantity: amyloid nucleation score

Below: 6 substances and their reported amyloid nucleation score.
substance=VLADYGTM measured_quantity="amyloid nucleation score" result=inactive
substance=WVNTGNQRLYRQTCCGTLVR measured_quantity="amyloid nucleation score" result=inactive
substance=SCGKGRYWVLNAMINPICKQ measured_quantity="amyloid nucleation score" result=1.14
substance=SWCWYMCSGLNIEIAKGLTR measured_quantity="amyloid nucleation score" result=inactive
substance=SCVARYDRAAHRRVIETRLG measured_quantity="amyloid nucleation score" result=inactive
substance=SLLLTSWESVYIMRGLDRTI measured_quantity="amyloid nucleation score" result=0.086

Asked: Input `SDIAVLRRLNCMKVKLKLWH` , output reported amyloid nucleation score.
Given back: inactive

Asked: Input `RKLGLEYGITMSCASLLALR` , output reported amyloid nucleation score.
Given back: inactive

Asked: Input `QLQSYRQGTFGDQYSPSVHS` , output reported amyloid nucleation score.
Given back: inactive

Asked: Input `TSRLFHKFLGYAPSRTNSSL` , output reported amyloid nucleation score.
Given back: inactive

Asked: Input `KRFDMMHIQTYEMGWSPSVR` , output reported amyloid nucleation score.
Given back: inactive

Asked: Input `RGAPVFCFYKWFSTATCSIA` , output reported amyloid nucleation score.
Given back: inactive

Asked: Input `ILFEFTTPNLSYIFCFFTIH` , output reported amyloid nucleation score.
Given back: inactive

Asked: Input `CVNVLQPGVTHSRMANLCSG` , output reported amyloid nucleation score.
Given back: inactive

* * *

# protocol.details: amyloid nucleation score (Sup35N fusion, yeast selection) (log enrichment); library NNK3; higher = more nucleation; inactive = no reads after selection
measured.quantity: amyloid nucleation score
Just the number, please, no unit attached.

Below: 3 sequences and their reported amyloid nucleation score.
seq_string=GGTIFNGNWVSTLSHPQRRA numeric_value=0.47
seq_string=MMNVWLAFAPGML numeric_value=0.9
seq_string=LPMQYKLLSVFVADFFTIFV numeric_value=-1.07

Now examine the next entry.
Asked: Input `LCCSCWLLIDCQWKDGYLEG` , output reported amyloid nucleation score.
Given back: 1.91

* * *

Each entry below carries its recorded amyloid nucleation score.
# protocol.details: amyloid nucleation score (Sup35N fusion, yeast selection) (log enrichment); library NNK1; higher = more nucleation; inactive = no reads after selection
Just the number, please, no unit attached.

substance=PAGTGINLMICVARGGRTSG measured_quantity="amyloid nucleation score" numeric_value=5.24
substance=SAGVTPLEMKSDRIREDAAG measured_quantity="amyloid nucleation score" numeric_value=0.629
substance=VIVVVPLFGGRLCRVVRHR measured_quantity="amyloid nucleation score" numeric_value=0.278
substance=TYTPRETTSTCSAYSFYMLK measured_quantity="amyloid nucleation score" numeric_value=1.26
substance=KLSYFSQEKRDNWPISRLPS measured_quantity="amyloid nucleation score" numeric_value=0.072
substance=TRSLPFSIS measured_quantity="amyloid nucleation score" numeric_value=0.109
substance=TQEVLLFPGGCYNPFAFGWS measured_quantity="amyloid nucleation score" numeric_value=-0.647
substance=SGYSRGKEEQKHQFA measured_quantity="amyloid nucleation score" numeric_value=0.137

Asked: Input `AFFVAVCASWFPGLYRY` , output reported amyloid nucleation score.
Given back: 0.298

Asked: Input `LYTIRTYPSLLKCDSPLN` , output reported amyloid nucleation score.
Given back: -1.01

Asked: Input `NSRMRFILGTFY` , output reported amyloid nucleation score.
Given back: 1.63
